Test system: SW-620 colon
Assay: NCI tumour cell line growth inhibition, 48 h
# TGI listing for each entry below

# example entries with known answers
CCCCC1CCCCCCc2[nH]c(/C=C3\N=C(c4ccc[nH]4)C=C3OC)cc21 (stereo unspecified) = 1.15 µM
NC(N)=NS(=O)(=O)c1ccc(NC(=O)c2cccn3c(=O)c4ccccc4nc23)cc1 = > 100 µM
COc1ccc2c(c1)OCC1=C2Oc2ccccc2C1 = > 100 µM
COc1ccc(C(=O)NNC(=O)c2nsc3ccccc23)cc1 = > 100 µM
COc1cc(-c2nn(-c3ccc(NC(=O)Nc4ccc(Cl)c(C(F)(F)F)c4)cc3)cc2-c2ccncc2)ccc1Cl = 3.58 µM
NS(=O)(=O)c1ccc(C(=O)O)cc1 = > 100 µM
CSC1=C(C(=O)N(COCC[Si](C)(C)C)c2ccccc2Br)CCC(C(C)(C)C)C1 (stereo unspecified) = 41 µM
COCn1c(=O)n(C)c(=O)c2c1nc1c(c(=O)n(C)c(=O)n1COC)[n+]2[O-] = > 100 µM

// switching to the query compound
Value (TGI, SW-620 colon) for record Cc1ccc2oc(=O)cc(CC(=O)O)c2c1 = > 100 µM
